Attribution: BindingDB's records for doi:10.1021/jf000548p

biological target: Potassium voltage-gated channel subfamily H member 2 (Homo sapiens, UniProt Q12809)
Sequence (Q12809 whole entry): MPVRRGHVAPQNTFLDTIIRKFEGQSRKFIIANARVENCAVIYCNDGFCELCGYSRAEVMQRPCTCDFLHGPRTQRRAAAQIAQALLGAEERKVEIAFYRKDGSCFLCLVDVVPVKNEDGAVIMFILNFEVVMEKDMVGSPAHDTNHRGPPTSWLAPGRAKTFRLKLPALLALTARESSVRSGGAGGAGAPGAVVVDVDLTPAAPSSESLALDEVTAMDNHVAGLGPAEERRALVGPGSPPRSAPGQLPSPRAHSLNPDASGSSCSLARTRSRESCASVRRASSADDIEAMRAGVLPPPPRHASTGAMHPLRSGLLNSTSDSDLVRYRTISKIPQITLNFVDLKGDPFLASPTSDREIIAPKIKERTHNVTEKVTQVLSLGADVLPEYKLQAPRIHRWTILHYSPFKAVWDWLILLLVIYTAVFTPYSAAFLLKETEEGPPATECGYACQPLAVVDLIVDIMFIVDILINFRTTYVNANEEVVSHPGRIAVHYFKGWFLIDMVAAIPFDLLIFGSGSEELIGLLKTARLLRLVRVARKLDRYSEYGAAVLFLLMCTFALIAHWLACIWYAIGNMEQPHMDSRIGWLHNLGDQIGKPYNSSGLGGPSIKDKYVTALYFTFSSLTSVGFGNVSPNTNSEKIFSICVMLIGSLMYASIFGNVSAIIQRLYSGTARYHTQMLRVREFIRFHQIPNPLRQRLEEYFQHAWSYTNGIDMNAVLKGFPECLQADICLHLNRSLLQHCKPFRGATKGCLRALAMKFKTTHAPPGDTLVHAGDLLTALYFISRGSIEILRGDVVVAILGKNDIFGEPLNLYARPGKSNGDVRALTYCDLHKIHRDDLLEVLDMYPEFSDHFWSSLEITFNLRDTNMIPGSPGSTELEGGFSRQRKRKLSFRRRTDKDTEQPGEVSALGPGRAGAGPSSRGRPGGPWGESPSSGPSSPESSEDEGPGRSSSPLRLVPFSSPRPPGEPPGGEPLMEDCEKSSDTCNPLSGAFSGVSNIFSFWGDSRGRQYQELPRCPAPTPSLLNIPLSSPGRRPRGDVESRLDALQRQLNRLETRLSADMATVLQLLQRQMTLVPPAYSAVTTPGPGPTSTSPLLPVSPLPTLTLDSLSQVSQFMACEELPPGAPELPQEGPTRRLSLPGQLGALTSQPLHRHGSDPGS
QUANTITY_NAME: pIC50
pIC50 here: minus log base 10 of the concentration, concentration in moles per litre.

Asked: Requested read-out: pIC50. Entry: O=C(Nc1ccc(-c2ccc(F)cn2)cc1)c1cc2sc(NCCN3CCOCC3)nc2s1
Given back: 4.56

----------
molecular target: Cytochrome P450 2C9 (Homo sapiens, UniProt P11712)
Sequence (P11712 whole entry): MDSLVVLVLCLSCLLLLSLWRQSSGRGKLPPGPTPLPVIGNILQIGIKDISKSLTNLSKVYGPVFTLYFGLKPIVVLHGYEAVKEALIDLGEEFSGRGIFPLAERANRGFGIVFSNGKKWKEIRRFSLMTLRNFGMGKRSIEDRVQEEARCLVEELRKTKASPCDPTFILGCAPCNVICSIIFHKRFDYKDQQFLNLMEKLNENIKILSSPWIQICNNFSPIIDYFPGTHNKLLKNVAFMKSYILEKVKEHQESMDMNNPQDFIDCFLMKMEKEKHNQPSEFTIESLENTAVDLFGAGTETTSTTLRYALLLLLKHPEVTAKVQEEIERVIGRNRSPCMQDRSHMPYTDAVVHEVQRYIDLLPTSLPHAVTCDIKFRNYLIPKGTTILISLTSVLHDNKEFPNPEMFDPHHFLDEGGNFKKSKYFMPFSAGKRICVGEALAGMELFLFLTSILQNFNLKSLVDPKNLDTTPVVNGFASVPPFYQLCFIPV
QUANTITY_NAME: pIC50
pIC50 here: minus log base 10 of the concentration, concentration in moles per litre.

Asked: Requested read-out: pIC50. Entry: O=C(Nc1ccc(-c2ccc(F)cn2)cc1)c1cc2sc(NCCN3CCOCC3)nc2s1
Given back: 5.13
